// provenance: ChEMBL document CHEMBL2218924

Recorded residual activity, one value per entry.
Tgt: Serine/threonine-protein kinase PLK1 (Homo sapiens) (UniProt P53350)
Sequence (P53350 whole entry): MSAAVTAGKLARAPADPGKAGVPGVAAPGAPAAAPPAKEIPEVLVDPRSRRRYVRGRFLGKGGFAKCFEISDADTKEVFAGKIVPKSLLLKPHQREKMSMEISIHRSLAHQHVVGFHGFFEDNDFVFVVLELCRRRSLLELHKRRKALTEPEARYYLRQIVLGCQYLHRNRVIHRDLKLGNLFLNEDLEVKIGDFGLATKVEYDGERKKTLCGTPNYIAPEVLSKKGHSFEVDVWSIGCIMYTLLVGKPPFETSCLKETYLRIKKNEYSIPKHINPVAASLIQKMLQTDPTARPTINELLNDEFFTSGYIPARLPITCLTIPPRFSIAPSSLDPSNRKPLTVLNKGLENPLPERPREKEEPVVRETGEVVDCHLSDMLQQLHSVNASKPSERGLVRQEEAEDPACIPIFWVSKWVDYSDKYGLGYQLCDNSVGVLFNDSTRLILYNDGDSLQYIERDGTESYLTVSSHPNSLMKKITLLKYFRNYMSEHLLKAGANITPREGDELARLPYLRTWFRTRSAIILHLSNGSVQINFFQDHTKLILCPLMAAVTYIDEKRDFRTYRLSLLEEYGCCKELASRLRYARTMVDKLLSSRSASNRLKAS
Reported Conditions: at 10 µM

Worked cases, answers included:
>  <Molecule>
Nc1ncnc2c1cnn2-c1ccccc1

>  <Readout Label>
residual activity

>  <Measurement>
86%

$$$$
>  <Molecule>
NCCNc1ncc(C(N)=O)c(Nc2cccc(C(F)(F)F)c2)n1

>  <Readout Label>
residual activity

>  <Measurement>
73%

$$$$

Query: Entry under review: O=C1NC(=O)C(c2cn(CCCO)c3ncccc23)=C1c1cnccn1 . Reported residual activity?
Result: 82%

Query: # lookup: residual activity of O=C(O)/C=C/c1cc(Br)c(Br)c(Br)c1Br
Result: 22%

Query: Entry O=C1Cc2c([nH]c3ccc(Br)cc23)-c2ccccc2N1 : reported residual activity = ?
Result: 75%

Query: residual activity; subject: O=C(NC(NC(=S)Nc1ccc(F)c([N+](=O)[O-])c1)C(Cl)(Cl)Cl)C(c1ccccc1)c1ccccc1 (stereo unspecified)
Result: 98%

Query: Reported residual activity, molecule Nc1n[nH]c2nc3ccccc3nc12 : ____
Result: 78%

Query: Request the reported residual activity associated with O=C1Nc2ccccc2/C1=C\c1c(Cl)[nH]c2ccccc12
Result: 75%

Query: Would you kindly share the measured residual activity for CCCC(=O)Oc1ccc2[nH]c(C(=O)c3cc4ccccc4[nH]3)cc2c1 ?
Result: 58%

Query: Form field: reported residual activity of O=c1cc(N2CCOCC2)oc2c1ccc1ccccc12
Result: 11%

Query: # query: residual activity of entry COc1ccc(COc2ccc(Cc3cnc(N)nc3N)cc2OC)cc1
Result: 71%

---

Tgt: Tyrosine-protein kinase Tec (Homo sapiens) (UniProt P42680)
Sequence (P42680 whole entry): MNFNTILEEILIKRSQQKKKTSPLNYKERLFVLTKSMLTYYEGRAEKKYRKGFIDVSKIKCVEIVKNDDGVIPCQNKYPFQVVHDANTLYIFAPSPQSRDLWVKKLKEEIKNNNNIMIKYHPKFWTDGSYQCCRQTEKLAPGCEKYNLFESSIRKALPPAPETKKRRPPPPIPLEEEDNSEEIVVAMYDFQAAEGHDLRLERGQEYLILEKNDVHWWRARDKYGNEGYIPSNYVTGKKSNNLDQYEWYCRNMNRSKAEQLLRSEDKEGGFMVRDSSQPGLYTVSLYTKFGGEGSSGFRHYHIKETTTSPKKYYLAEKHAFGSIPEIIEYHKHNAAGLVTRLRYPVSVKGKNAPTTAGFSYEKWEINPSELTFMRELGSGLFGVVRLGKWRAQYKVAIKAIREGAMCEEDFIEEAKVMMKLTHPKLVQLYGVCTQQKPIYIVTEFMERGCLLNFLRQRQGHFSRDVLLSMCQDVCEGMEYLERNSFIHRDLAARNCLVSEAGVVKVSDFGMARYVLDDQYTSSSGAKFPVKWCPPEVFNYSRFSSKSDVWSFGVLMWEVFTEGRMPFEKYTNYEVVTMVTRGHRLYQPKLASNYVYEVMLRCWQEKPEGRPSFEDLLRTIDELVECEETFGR
Reported Conditions: at 1 µM
Readout Label: residual activity
I'd appreciate it if you wrote the number followed by its unit.

>  <Compound>
Cn1sc(=O)n(Cc2ccccc2)c1=O

>  <Tgt>
Tyrosine-protein kinase Tec (Homo sapiens) (UniProt P42680)

>  <residual activity>
97%

$$$$

Query: Quick one: residual activity for COc1ccc(Cl)cc1NC(=O)Nc1cc(C)nc2ccccc12 ?
Result: 93%

Query: Would you kindly share the measured residual activity for Nc1ncnc2c1cnn2-c1ccccc1 ?
Result: 99%

Query: What value of measured residual activity is listed for CCOC(=O)c1c(C)[nH]c(/C=C2\C(=O)Nc3ccccc32)c1C ?
Result: 88%

---

Tgt: Ephrin type-A receptor 5 (Homo sapiens)
Reported Conditions: at 1 µM
Known residual activity of a selection of molecules

>  <Structure String>
CCCC(=O)Oc1ccc2[nH]c(C(=O)c3cc4ccccc4[nH]3)cc2c1

>  <residual activity>
107%

$$$$

Query: Form entry - test system: Ephrin type-A receptor 5 (Homo sapiens); read-out: residual activity; molecule: COc1cc2ncnc(Nc3cccc(Cl)c3)c2cc1OC
Result: 77%

Query: For Ephrin type-A receptor 5 (Homo sapiens), provide residual activity of Nc1ncnc2c1c(-c1ccc(Oc3ccccc3)cc1)cn2C1CCCC1 please.
Result: 83%

Query: Enter reported residual activity observed with Ephrin type-A receptor 5 (Homo sapiens) for O=C(c1ccccc1)c1ccc(N2CCOCC2)cc1O
Result: 118%

---

Tgt: Calcium/calmodulin-dependent protein kinase type 1 (Homo sapiens) (UniProt Q14012)
Sequence (Q14012 whole entry, looked up): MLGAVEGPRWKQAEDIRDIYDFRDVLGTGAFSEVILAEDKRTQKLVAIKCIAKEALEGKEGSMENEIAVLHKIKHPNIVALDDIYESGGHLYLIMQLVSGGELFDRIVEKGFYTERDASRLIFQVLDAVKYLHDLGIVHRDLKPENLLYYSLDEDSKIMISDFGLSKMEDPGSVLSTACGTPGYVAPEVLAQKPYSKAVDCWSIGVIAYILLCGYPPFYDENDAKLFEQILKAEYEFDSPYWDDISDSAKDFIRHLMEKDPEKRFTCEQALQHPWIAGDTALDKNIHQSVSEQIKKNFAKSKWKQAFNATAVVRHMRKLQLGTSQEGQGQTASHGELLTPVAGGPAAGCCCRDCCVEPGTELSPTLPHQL
Reported Conditions: at 10 µM
Readout Label: residual activity (%)
Report the figure in % without appending any unit label.

Query: Look up residual activity for this compound: NCCNc1ncc(C(N)=O)c(Nc2cccc(C(F)(F)F)c2)n1
Result: -5

Query: Need residual activity of c1ccc(-c2cnc(Nc3ccc(OCCN4CCCC4)cc3)s2)cc1 , thanks.
Result: 41

Query: Tell me the measured residual activity of CCOc1nc(NC(=O)Cc2cc(OC)ccc2OC)cc(N)c1C#N , please.
Result: 78

Query: Suppose we examine the compound CC(C)c1nn(-c2c(Cl)cccc2Cl)c2nc(Cc3ccc(OCCO)cc3)[nH]c(=O)c12 ; what residual activity value has been reported?
Result: 91

Query: Return reported residual activity; argument: CCCCc1c(-c2ccc(O)cc2)[nH]c2nccnc12
Result: 71

Query: Fill in: residual activity of CCN(CC)CCNC(=O)c1c(C)[nH]c(/C=C2\C(=O)Nc3ccc(Cl)cc32)c1C is ___
Result: -2

Query: Fill in the blank: the reported residual activity of NC(=O)c1ccc(-c2nc(-c3ccc4c(c3)OCCO4)c(-c3ccccn3)[nH]2)cc1 is ____.
Result: 73

Query: Which residual activity is listed for O=C1Nc2ccc(Cl)cc2/C1=C/c1cc(Cl)c(O)c(Cl)c1 ?
Result: 63

---

Tgt: Serine/threonine-protein kinase Nek11 (Homo sapiens)
Reported Conditions: at 10 µM
Readout Label: residual activity (%)
I only need the number, in %, no unit after it.

>  <Structure String>
N#Cc1c(NC(=O)c2cccc3ccccc23)sc2c1CCCC2

>  <Quantity Unit>
%

>  <residual activity>
72

$$$$
>  <Structure String>
c1ccc(-c2cnc(Nc3ccc(OCCN4CCCC4)cc3)s2)cc1

>  <Quantity Unit>
%

>  <residual activity>
76

$$$$
>  <Structure String>
COc1ccc(CNC(=O)Nc2ncc([N+](=O)[O-])s2)cc1

>  <Quantity Unit>
%

>  <residual activity>
66

$$$$
>  <Structure String>
O=C(CCCc1ccc(-c2ccccc2F)cc1)Nc1ccc(O)cc1

>  <Quantity Unit>
%

>  <residual activity>
60

$$$$

Query: Given Nc1ncnc2c1cnn2-c1ccccc1 , state its recorded residual activity.
Result: 88

---

Tgt: Serine/threonine-protein kinase BRSK2 (Homo sapiens) (UniProt Q8IWQ3)
Sequence (Q8IWQ3 whole entry): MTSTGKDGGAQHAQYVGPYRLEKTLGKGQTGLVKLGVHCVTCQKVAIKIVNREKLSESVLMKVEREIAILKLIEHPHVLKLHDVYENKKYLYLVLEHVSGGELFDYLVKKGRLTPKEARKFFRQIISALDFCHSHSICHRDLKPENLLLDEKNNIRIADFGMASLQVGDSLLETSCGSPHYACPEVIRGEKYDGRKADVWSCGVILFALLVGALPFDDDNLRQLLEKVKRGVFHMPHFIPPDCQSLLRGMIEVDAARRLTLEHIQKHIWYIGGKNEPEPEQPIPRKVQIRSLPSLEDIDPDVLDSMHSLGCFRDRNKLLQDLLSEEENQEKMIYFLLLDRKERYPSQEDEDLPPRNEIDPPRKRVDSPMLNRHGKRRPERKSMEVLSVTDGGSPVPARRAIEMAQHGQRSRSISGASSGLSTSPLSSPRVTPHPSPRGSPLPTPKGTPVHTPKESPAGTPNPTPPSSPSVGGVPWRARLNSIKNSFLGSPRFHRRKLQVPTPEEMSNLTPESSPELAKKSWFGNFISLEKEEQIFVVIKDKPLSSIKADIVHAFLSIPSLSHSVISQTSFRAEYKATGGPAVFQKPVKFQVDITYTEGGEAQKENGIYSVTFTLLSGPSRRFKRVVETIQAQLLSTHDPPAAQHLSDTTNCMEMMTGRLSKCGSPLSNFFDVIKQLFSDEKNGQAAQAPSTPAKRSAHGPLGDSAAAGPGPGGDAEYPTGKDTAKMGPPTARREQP
Reported Conditions: at 10 µM
Just a reminder that ties go to N: only residual activity strictly below 60% counts as Y.

Query: Hello, I'm reviewing records and need to know if residual activity of O=C1NC(=O)C(c2c[nH]c3ccccc23)=C1c1c[nH]c2ccccc12 is below 60%. Could you check?
Result: Y

Query: # check: residual activity < 60% for CN(C)S(=O)(=O)c1ccc2c(c1)/C(=C/c1cc3c([nH]1)CCCC3)C(=O)N2
Result: Y

Query: Is 60% strictly greater than the compound's reported residual activity? compound: COc1ccc(Cl)cc1NC(=O)Nc1cc(C)nc2ccccc12
Result: N

Query: Is residual activity of Nc1nccc(-c2c(-c3ccc(F)cc3)ncn2C2CCNCC2)n1 strictly below 60%?
Result: N

Query: Determine if Oc1cccc(-c2nc(N3CCOCC3)c3oc4ncccc4c3n2)c1 shows residual activity strictly lower than 60%.
Result: N

Query: Is 60% strictly greater than the compound's reported residual activity? compound: CC(C)(C)n1nc(Cc2cccc3ccccc23)c2c(N)ncnc21
Result: N

---

Item-by-item account of residual activity
Tgt: Serine/threonine-protein kinase 3 (Homo sapiens) (UniProt Q13188)
Sequence (Q13188 whole entry): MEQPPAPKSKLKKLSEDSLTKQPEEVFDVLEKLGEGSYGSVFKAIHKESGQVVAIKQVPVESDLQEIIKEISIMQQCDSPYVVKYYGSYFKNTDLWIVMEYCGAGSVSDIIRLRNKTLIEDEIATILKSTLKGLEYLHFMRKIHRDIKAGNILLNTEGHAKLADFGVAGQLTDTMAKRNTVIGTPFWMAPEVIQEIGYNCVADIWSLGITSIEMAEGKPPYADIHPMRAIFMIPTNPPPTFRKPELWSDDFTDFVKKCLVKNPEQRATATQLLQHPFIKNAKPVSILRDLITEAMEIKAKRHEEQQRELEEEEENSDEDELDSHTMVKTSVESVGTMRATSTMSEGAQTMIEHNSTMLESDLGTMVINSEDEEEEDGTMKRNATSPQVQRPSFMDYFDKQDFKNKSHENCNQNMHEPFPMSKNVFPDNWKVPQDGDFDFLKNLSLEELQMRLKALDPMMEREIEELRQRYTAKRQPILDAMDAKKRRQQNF
Reported Conditions: at 1 µM
Number in %, nothing else.

Worked examples follow.
>  <Compound>
Nc1n[nH]c2nc3ccccc3nc12

>  <residual activity [%]>
117

$$$$
>  <Compound>
CN(C)S(=O)(=O)c1ccc2c(c1)/C(=C/c1cc3c([nH]1)CCCC3)C(=O)N2

>  <residual activity [%]>
28

$$$$
>  <Compound>
COc1cc2nccc(Oc3ccc(NC(=S)NC(=O)c4ccccc4C)cc3)c2cc1OC

>  <residual activity [%]>
97

$$$$
>  <Compound>
Nc1nc(Nc2ccc(S(N)(=O)=O)cc2)nn1C(=O)c1c(F)cccc1F

>  <residual activity [%]>
34

$$$$
>  <Compound>
CC(C)c1nn(-c2c(Cl)cccc2Cl)c2nc(Cc3ccc(OCCO)cc3)[nH]c(=O)c12

>  <residual activity [%]>
109

$$$$
>  <Compound>
CN([C@@H](Cc1ccc(OS(=O)(=O)c2cccc3cnccc23)cc1)C(=O)N1CCN(c2ccccc2)CC1)S(=O)(=O)c1cccc2cnccc12

>  <residual activity [%]>
99

$$$$
>  <Compound>
CSc1nc(-c2ccc(F)cc2)c(-c2ccnc(NC(C)c3ccccc3)c2)[nH]1 (centres undefined)

>  <residual activity [%]>
101

$$$$
>  <Compound>
O=C1Cc2c([nH]c3ccc(Br)cc23)-c2ccccc2N1

>  <residual activity [%]>
87

$$$$

Query: What measured residual activity goes with COc1cc2ncnc(Nc3cccc(Cl)c3)c2cc1OC ?
Result: 100

Query: Any idea what its residual activity is? The compound is O=C1NC(=O)C(c2cn(CCCO)c3ncccc23)=C1c1cnccn1
Result: 92

Query: Using the record for N#C/C(=C1/Nc2ccccc2S1)c1ccnc(NCCc2cccnc2)n1 , report its residual activity.
Result: 97

Query: What value of residual activity has been reported for the following compound? O=C1NC(=O)C(c2cn(CCCn3ccnc3)c3ccccc23)=C1Nc1ccccc1
Result: 64

Query: // residual activity lookup, key: CCCCc1c(-c2ccc(O)cc2)[nH]c2nccnc12
Result: 86

Query: What measured residual activity goes with O=C1Nc2ccc(Cl)cc2/C1=C/c1cc(Cl)c(O)c(Cl)c1 ?
Result: 49
